Numbers sourced from paper PMC6779109.

- subject.of.test: T1, 6His-14-3-3ω recombinant protein (Arabidopsis thaliana, UniProt Q01525 1-259)
- T1 construct: 14-3-3ω (GF14/omega) of Arabidopsis thaliana; also called At14-3-3ω; GF14/omega; source: E. coli, purified (Ni-NTA)
- T1 sequence (looked up): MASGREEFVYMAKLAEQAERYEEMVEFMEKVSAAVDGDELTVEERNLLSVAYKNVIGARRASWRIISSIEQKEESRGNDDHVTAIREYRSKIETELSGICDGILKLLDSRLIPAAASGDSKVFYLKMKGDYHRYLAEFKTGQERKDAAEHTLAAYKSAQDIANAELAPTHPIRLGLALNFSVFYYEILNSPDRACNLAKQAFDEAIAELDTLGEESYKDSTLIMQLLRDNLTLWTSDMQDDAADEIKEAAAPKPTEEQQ
- experiment.notes: quartz crystal microbalance; GST fusion peptide coated on the sensor to saturation, 6His-14-3-3ω injected into PBS; AFFINIX QN μ, Kd by AQUA software
- test.parameters: both partners purified
Where no end group is shown, it is not given here.
measurement.type: pKd
Just so you know, pKd here is -log10 of the concentration in molar units; reply with that number alone.

{"binder": "RYRRMERTSSMPRA (also: phosphorylated, site not given here, fused to GST, C-terminal fragment of AtGLR3.7 holding Thr-858, Ser-859 and Ser-860; also called G-P0-phosphorylated fusion peptide; phosphorylated G-GLR3.7 P0; not shown: RFP (from the NRV vector)) [Phosphorylated GST-GLR3.7 P0 recombinant fusion peptide]", "readout.value": 8.64}

Moving on to the next binder.
stdin: Record request: pKd value, item RYRRMERTSSMPRA (also: GST fusion, C-terminal fragment of AtGLR3.7 holding Thr-858, Ser-859 and Ser-860; Cloned between AscI and NotI of the NRV vector (GST, RFP, Strep-tags; Curran et al., 2011) with the amino acids APG after the restriction site; fusion protein about 55 kD; also called G-P0; G-GLR3.7 P0; not shown: RFP (from the NRV vector)) [GST-GLR3.7 P0 recombinant fusion peptide (nonphosphorylated)]
stdout: 5.75
